Overview of reported Toxicity across a group of compounds:
- System: HeLa
- TEST NAME: Cytotoxicity concentration in HeLa cells
- Format: cell-based
- DETAILS: human

SMILES RECORD | SUBJECT OF TEST | Toxicity
Cc1cc(Oc2ccc(Cl)c(Cl)c2)ccc1S(C)(=O)=O | HeLa | > 151 µM
N#Cc1cc([N+](=O)[O-])ccc1Oc1ccc(Br)cc1 | HeLa | > 313 µM
CC(=O)c1ccc(Oc2ccc([N+](=O)[O-])cc2C#N)cc1 | HeLa | > 177 µM
N#Cc1cc([N+](=O)[O-])ccc1Oc1ccccc1 | HeLa | > 42 µM
N#Cc1cc([N+](=O)[O-])ccc1Oc1cc(Cl)cc(Cl)c1 | HeLa | > 65 µM
CS(=O)(=O)c1ccc(Oc2ccc([N+](=O)[O-])cc2C#N)cc1 | HeLa | > 314 µM
N#Cc1ccnc(Oc2ccc(Cl)c(Cl)c2)c1 | HeLa | > 189 µM
N#Cc1ccc(Oc2ccc([N+](=O)[O-])cc2C#N)cc1 | HeLa | > 38 µM
